# Tested on: myeloid leukemia patient primary cells Pat.12
# PROTOCOL_SUMMARY: cell viability (% survival relative to DMSO control); higher = less cytotoxic
# CONDITION: 1000 nM; 72 h

MOLECULE | ASSAY_SYSTEM | VALUE_COMPARATOR | cell viability / %
O=C1O/C(=C/Br)CCC1c1cccc2ccccc12 (configuration not stated) | myeloid leukemia patient primary cells Pat.12 | = | 90.9
C[C@H](NC(=O)c1sccc1OCc1ccc(Cl)cc1)c1ccccc1 | myeloid leukemia patient primary cells Pat.12 | > | 100
CCC(=O)N1CCN(c2ccc(-n3c(=O)ccc4cnc5ccc(-c6cnc7ccccc7c6)cc5c43)cc2C(F)(F)F)CC1 | myeloid leukemia patient primary cells Pat.12 | = | 91.5
O=C(C1CC1)N1CC[C@@H](C=C2NNC(=O)N2c2ccc(-c3ccc4occc4c3)cc2)C1 | myeloid leukemia patient primary cells Pat.12 | = | 89
COC(=O)[C@]12CCC(C)(C)C[C@H]1[C@H]1C(=O)C=C3[C@@]4(C)C=C(C#N)C(=O)C(C)(C)[C@@H]4CC[C@@]3(C)[C@]1(C)CC2 | myeloid leukemia patient primary cells Pat.12 | = | 95.8
C=C(C=NNC(=N)N)NNC(=N)N | myeloid leukemia patient primary cells Pat.12 | = | 96.9
C=C(C)[C@H]1Cc2c(ccc3c2O[C@@H]2COc4cc(OC)c(OC)cc4[C@@H]2C3=O)O1 | myeloid leukemia patient primary cells Pat.12 | = | 64.9
